Kindly state inhibition for each of the entries shown.
System: Tylonycteris bat coronavirus HKU4
Conditions: at 100 µM
State just the number; it will be interpreted in %.

Q: Give its inhibition value. Item: "CC(C)(C)NC(=O)[C@H](c1cccnc1)N(C(=O)c1c[nH]cn1)c1ccc(C(C)(C)C)cc1"
Result: 44

Q: Proceed to CC(C)(C)NC(=O)C(c1ccnnc1)N(C(=O)c1ccco1)c1ccc(C(C)(C)C)cc1 (stereo not given)
Result: 35

Q: Query CC(C)(C)NC(=O)C(c1ccsc1)N(C(=O)Cc1cccc2ccccc12)c1ccc(OCF)cc1 (stereo not given) next
Result: 17

Q: Try CC(C)c1ccc(N(C(=O)c2ccc(C#N)cc2)C(C(=O)NC(C)(C)C)c2cccnc2)cc1 (stereo not given) next.
Result: 28

Q: How about this compound: CC(C)c1ccc(N(C(=O)c2n[nH]c3ccccc23)C(C(=O)NC(C)(C)C)c2ccsc2)cc1 (stereo not given)
Result: 11

----------
Can you tell me inhibition for the items I'm about to list?
Test system: Tylonycteris bat coronavirus HKU4
Settings: at 100 µM
Numeric only. Scale: %

Q: Entry CC(C)(C)NC(=O)C(c1c[nH]cn1)N(C(=O)c1ccco1)c1ccc(C(C)(C)C)cc1 (stereo not drawn) : reported inhibition = ?
Result: 9

Q: Check CC(C)(C)NC(=O)C(c1cccnc1)N(C(=O)c1cnccn1)c1ccc(C(C)(C)C)cc1 (stereo not drawn) too.
Result: 41

Q: // query: CC(C)(C)NC(=O)C(c1cccnc1)N(C(=O)c1ccco1)c1ccc(C(C)(C)C)cc1 (stereo not drawn)
Result: 11

Q: Then this compound: CC(C)(C)NC(=O)C(c1ccsc1)N(C(=O)c1ccc(C(F)(F)F)nc1)C1CC1 (stereo not drawn)
Result: 12

Q: Likewise for CC(C)(C)NC(=O)C(c1ccsc1)N(C(=O)c1cccc2c1CCCC2)C1CC1 (stereo not drawn) ?
Result: 14

Q: Again, but for CC(C)(C)NC(=O)C(c1cccnc1)N(C(=O)c1ccco1)c1ccc(-c2ccc(F)cc2F)cc1 (stereo not drawn)
Result: 16

Q: Then what about the compound CC(C)(C)NC(=O)C(c1cccnc1)N(C(=O)c1ccc[nH]1)c1ccc(C(C)(C)C)cc1 (stereo not drawn) ?
Result: 16

Q: Thanks! And CC(C)(C)NC(=O)C(c1cccnc1)N(C(=O)c1ccco1)c1ccc(-c2ccccc2)cc1 (stereo not drawn) ?
Result: 22

Q: Next compound up: CC(C)(C)NC(=O)C(c1cccnc1)N(C(=O)c1ccco1)c1ccc(-c2ccnc(F)c2)cc1 (stereo not drawn)
Result: 16

Q: Lookup CC(C)c1ccc(N(C(=O)c2ccco2)C(C(=O)NC(C)(C)C)c2ccsc2)cc1 (stereo not drawn)
Result: 18

Q: Another compound to check: O=C(Nc1ccc(N(C(=O)Cn2nnc3ccccc32)C(C(=O)NCc2ccccc2)c2cccc(F)c2)cc1)C1CC1 (stereo not drawn)
Result: 71

Q: What do you get for CC(C)(C)NC(=O)C(c1cccnc1)N(C(=O)c1ccco1)c1ccc(-c2ccccc2C#N)cc1 (stereo not drawn) ?
Result: 62

Q: Can you check CC(C)(C)NC(=O)C(c1ccsc1)N(C(=O)Cn1nnc2ccccc21)c1ccc(NS(C)(=O)=O)cc1 (stereo not drawn) next?
Result: 27

Q: Likewise for CC(C)(C)NC(=O)C(c1cccnc1)N(C(=O)c1ccc(Cl)cc1)c1ccc(C(C)(C)C)cc1 (stereo not drawn) ?
Result: 27

Q: Now try CC(C)c1ccc(N(C(=O)c2cccc3c2CCCC3)C(C(=O)NC(C)(C)C)c2ccsc2)cc1 (stereo not drawn) .
Result: 20

Q: Please answer likewise for "CC(C)(C)c1ccc(N(Cc2cccnc2)C(=O)c2c[nH]cn2)cc1"
Result: 28

Q: Next: "O=C(Nc1ccc(N(Cc2ccsc2)C(=O)Cn2nnc3ccccc32)cc1)C1CC1"
Result: 89

Q: Another compound: CC(C)(C)NC(=O)C(c1cccnc1)N(C(=O)c1ccco1)c1ccc(/C=C/c2ccccc2)cc1 (stereo not drawn)
Result: 21

----------
System: Tylonycteris bat coronavirus HKU4
Details: at 100 µM
Think of 20% as a floor: if inhibition stands on it or above, it is label 1; beneath it, label 0.

Q: Entry CCC(=O)Nc1ccc(N(C(=O)Cn2cnc3ccccc32)C(C(=O)NC(C)(C)C)c2ccsc2)cc1 (centres undefined) : is its inhibition no less than 20%?
Result: label 1

Q: What would you report for CC(C)(C)NC(=O)C(c1cccnc1)N(C(=O)c1ccco1)c1ccc(-c2ccc(C#N)cc2)cc1 (centres undefined) ?
Result: label 0

Q: What about CC(C)(C)NC(=O)C(c1cccnc1)N(C(=O)Cc1cccc2ccccc12)c1ccc(OCF)cc1 (centres undefined) ?
Result: label 1

Q: Next up: "CC(C)(C)C(=O)Nc1ccc(N(Cc2ccsc2)C(=O)Cn2nnc3ccccc32)cc1"
Result: label 1

Q: Follow-up entry: CC(C)(C)NC(=O)C(c1cccnc1)N(C(=O)c1ccco1)c1ccc(-c2ccc[nH]2)cc1 (centres undefined)
Result: label 1

Q: Record: CC(=O)Nc1ccc(N(C(=O)Cn2nnc3ccccc32)C(C(=O)NC(C)(C)C)c2ccsc2)cc1 (centres undefined)
Result: label 1

Q: // same read-out, input: "COCC(=O)Nc1ccc(N(Cc2ccsc2)C(=O)Cn2nnc3ccccc32)cc1"
Result: label 1

Q: Input CC(C)(C)NC(=O)C(c1ccsc1)N(C(=O)c1ccco1)C1CC1 (centres undefined)
Result: label 0

Q: Next entry: CC(C)c1ccc(N(C(=O)Cc2cccnc2)C(C(=O)NC(C)(C)C)c2ccsc2)cc1 (centres undefined)
Result: label 1

----------
Exercise: for every item that follows, state its recorded inhibition.
System: Tylonycteris bat coronavirus HKU4
Details: at 100 µM
Use % as the unit, but write only the number.

Q: Give Tylonycteris bat coronavirus HKU4 inhibition for CC(=O)Nc1ccc(N(C(=O)Cn2ccnc2C)C(C(=O)NC(C)(C)C)c2ccsc2)cc1 (centres undefined)
Result: 17

Q: Subsequent entry: Cc1nccn1CC(=O)N(c1ccc(NC(=O)C(C)C)cc1)C(C(=O)NC(C)(C)C)c1ccsc1 (centres undefined)
Result: 18

Q: Cool, now COc1ccccc1C(=O)N(c1ccc(C(C)(C)C)cc1)C(C(=O)NC(C)(C)C)c1cccnc1 (centres undefined)
Result: 17

Q: Further, for CC(C)(C)NC(=O)C(c1ccsc1)N(C(=O)c1ccco1)c1ccc(C(C)(C)C)cc1 (centres undefined) ?
Result: 19

Q: Note, next up: CC(C)(C)NC(=O)C(c1ccsc1)N(C(=O)c1ccc(C(F)(F)F)cn1)c1ccc(F)cc1 (centres undefined)
Result: 19

Q: And CC(C)(C)NC(=O)C(c1cccnc1)N(C(=O)c1ncccn1)c1ccc(C(C)(C)C)cc1 (centres undefined) ?
Result: 13

Q: Moving on to the next compound: CC(C)(C)NC(=O)C(c1cccnc1)N(C(=O)c1ccc(C(F)(F)F)nc1)c1ccc(OCF)cc1 (centres undefined)
Result: 15

Q: What do you get for CC(C)(C)NC(=O)C(c1cccnc1)N(C(=O)c1ccco1)c1ccc(OCc2ccccc2)cc1 (centres undefined) ?
Result: 14

Q: Next up: CC(C)(C)NC(=O)C(c1cccnc1)N(C(=O)Cc1c[nH]c2ccccc12)c1ccc(F)cc1 (centres undefined)
Result: 41

----------
Please respond with reported inhibition for every item in the list.
Tested on: Tylonycteris bat coronavirus HKU4
Conditions: at 100 µM
Write the answer as a number in %, unit excluded.

Q: Give its inhibition value. Item: Cc1nc2ccccc2n1CC(=O)N(c1ccc(NC(=O)C(C)C)cc1)C(C(=O)NC(C)(C)C)c1ccsc1 (centres undefined)
Result: 14

Q: Next entry: CC(C)(C)NC(=O)C(c1ccsc1)N(C(=O)Cc1cccc2ccccc12)c1ccc(F)cc1 (centres undefined)
Result: 15

Q: # repeat for CC(=O)Nc1ccc(N(C(=O)Cn2nnc3ccccc32)C(C(=O)NC(C)(C)C)c2cccc(F)c2)cc1 (centres undefined)
Result: 71

Q: And for Cc1ccc(C(=O)N(c2ccc(C(C)(C)C)cc2)C(C(=O)NC(C)(C)C)c2cccnc2)o1 (centres undefined) ?
Result: 26

Q: Likewise for CC(C)(C)NC(=O)C(c1cccnc1)N(C(=O)c1ccco1)c1ccc(-c2c(F)cccc2F)cc1 (centres undefined) ?
Result: 23

Q: Consider next the compound CC(C)(C)NC(=O)C(c1cccnc1)N(C(=O)c1ccco1)c1ccc(NS(=O)(=O)c2ccccc2)cc1 (centres undefined) in the same way.
Result: 16

Q: Param item: CC(C)(C)NC(=O)C(c1cccnc1)N(C(=O)c1ccco1)c1ccc(OC(F)F)cc1 (centres undefined)
Result: 31

Q: One more compound: CC(C)(C)NC(=O)C(c1cccnc1)N(C(=O)c1ccccc1O)c1ccc(C(C)(C)C)cc1 (centres undefined)
Result: 11

Q: Entry CC(C)(C)NC(=O)C(c1cccnc1)N(C(=O)c1ccc(C#N)cc1)c1ccc(F)cc1 (centres undefined) please
Result: 53

----------
Task for the reader: assign each of the following compounds its reported inhibition.
System: Tylonycteris bat coronavirus HKU4
Conditions: at 100 µM
Numeric only. Scale: %

Q: Endpoint output: inhibition of CC(C)(C)NC(=O)C(c1cccnc1)N(C(=O)Cc1ccccc1)c1ccc(C(C)(C)C)cc1 (stereo not given) . Value?
Result: 20

Q: Same for CC(C)(C)NC(=O)C(c1cccc(F)c1)N(C(=O)Cn1nnc2ccccc21)C12CC3CC(CC(C3)C1)C2 (stereo not given)
Result: 14

Q: Follow-up item: CC(C)(C)NC(=O)C(c1cccnc1)N(C(=O)c1cc[nH]n1)c1ccc(C(C)(C)C)cc1 (stereo in doubt; 124B)
Result: 17

Q: Now try CC(C)(C)NC(=O)C(c1ccncc1)N(C(=O)c1ccco1)c1ccc(C(C)(C)C)cc1 (stereo not given) .
Result: 28

Q: Now try CC(=O)Nc1ccc(N(C(=O)Cn2ccnn2)C(C(=O)NC(C)(C)C)c2ccsc2)cc1 (stereo not given) .
Result: 27
